The origin of these recorded values is patent US20240317841A1.

Property: % cells binding to HA; scope: individual binders
Tested system: H1-CAL (Influenza A virus)
Assay method text: FACS, HA on mammalian cells; 2nd only 7.4
Measured property: % cells binding to HA (%)

1. FHF11 (antibody, V domains shown) VH: QVQLQQSGPGLVKPSQTLSVTCGISGDSVSSHSAAWNWIRQSPSRGLEWLGRTYYRSKWYNDYAVSVKSRITINPDTSKNQFSLQLISVTPEDTAVYYCARVGAMTFGLLTGGMDVWGQGTTVTVSS VL: EIVLTQSPGTQSLSPGERATLSCRASQSLSRSYLAWYQQRPGKPPRLLIYGASSRATGIPDRFSGSGSGTDFSLTISSLEPEDSAMYFCQYYGDSPLFSFGPGTKVDIK	88
2. FHF11v6 (antibody, V domains shown) VH: QVQLQQSGPGLVKPSQTLSVTCGISGDSVSSHSAAWNWIRQSPSRGLEWLGRTYYRSGWYNDYAVSVKSRITINPDTSKNQFSLQLISVTPEDTAVYYCARVGAMTFGLLTGGMDVWGQGTTVTVSS VL: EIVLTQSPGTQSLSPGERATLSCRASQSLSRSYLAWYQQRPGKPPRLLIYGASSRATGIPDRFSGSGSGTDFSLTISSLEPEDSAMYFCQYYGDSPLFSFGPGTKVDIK	85
3. FHF11v3 (antibody, V domains shown) VH: QVQLQQSGPGLVKPSQTLSVTCGISGDSVSSYSAAWNWIRQSPSRGLEWLGRTYYRSKWYNDYAVSVKSRITINPDTSKNQFSLQLISVTPEDTAVYYCARVGAMTFGLLTGGMDVWGQGTTVTVSS VL: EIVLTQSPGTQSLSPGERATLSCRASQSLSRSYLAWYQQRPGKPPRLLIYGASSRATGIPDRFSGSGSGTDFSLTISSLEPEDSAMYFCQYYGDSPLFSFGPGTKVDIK	84
4. FHF11v9 (antibody, V domains shown) VH: QVQLQQSGPGLVKPSQTLSVTCGISGDSVSSYSAAWNWIRQSPSRGLEWLGRTYYRSGWYNDYAVSVKSRITINPDTSKNQFSLQLISVTPEDTAVYYCARVGAMTFGLLTGGMDVWGQGTTVTVSS VL: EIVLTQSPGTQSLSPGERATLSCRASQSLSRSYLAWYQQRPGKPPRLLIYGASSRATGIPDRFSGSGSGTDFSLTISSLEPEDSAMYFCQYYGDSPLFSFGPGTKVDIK	85
